Ref: PubChem BioAssay AID623868

# testDescription: thallium influx changes without GIRK channels – cell-based, HEK-293 rmGlu8, no GIRK, thallium flux, counter-screen for GIRK activator project, confirmation (AID 623868);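 note: extra codes mark interference with 3 for fluorescent and 4 for baseline rise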
# cond: thallium flux fluorescence, at 10 µM, actives lie on both sides, codes: 1 enhancer, -1 blocker, 0 none, thallium stimulus containing EC20 glutamate
In all, about 2,100 compounds went through this assay and about 760 (36%) were called active. Only a sample is shown.
resultType: manual score
# respond with the number and nothing more

Look at this compound and give its reported manual score. N=C1/C(=C/c2cccs2)C(=O)N=C2SN=C(SCc3ccccc3)N12 1

Look at this compound and give its reported manual score. CCC(=O)Oc1oc(-c2ccccc2)nc1C=Nc1ccccc1OC -1
